test system: SMN2-linked luciferase-reporter gene construct; assay: SMN splice reporter assay (SMN2-linked luciferase reporter, Example 10); format: cell-based; settings: SMN2-linked luciferase reporter, average
Let's look at some molecules and their measured EC50.
Kindly provide the numeric value in µM only, without the unit symbol.

{"molecule": "Cc1ccc(-c2cc(N3Cc4ccccc4C3=O)ccc2C(C)C(=O)O)cc1 (stereo not drawn)", "unitTag": "µM", "EC50": 2.06}

Q. Name the reported EC50 value associated with the molecule CC(CN1CCOCC1)c1ccc(N2Cc3ccccc3C2=O)cc1 (stereo not drawn)
A. 1.4

Q. I would be grateful if you could share the reported EC50 for CC(C(=O)O)c1ccc(N2Cc3ccc(CN4CCOCC4)cc3C2=O)cc1 (stereo not drawn) .
A. 1.91

###

assay: Plasma and brain pharmacokinetics in mice; format: in vivo, FVB or CD-1 mice; conditions: mouse, brain, 25 mg/kg, oral, single dose, read-out: Brain T½ (converted)
propertyMeasured: half-life (h)
Note: unit h is implicit; provide only the numeric part.

Q. Entry "COc1ccc2c(c1)C(=O)N(c1ccc(C(C)(C)C)cc1)C2" : reported half-life = ?
A. 2.9

###

experiment: Plasma and brain pharmacokinetics in mice; type: in vivo, FVB or CD-1 mice; settings: mouse, plasma, 25 mg/kg, oral, single dose, read-out: Plasma T½ (converted)
propertyMeasured: half-life (h)
Return type: number; implicit unit h.

Q. Reported half-life, compound "COc1ccc2c(c1)C(=O)N(c1ccc(C(C)(C)C)cc1)C2" : ____
A. 1.1

###

// EC50 lookup, one value per entry
system: SMN2-linked luciferase-reporter gene construct; test: SMN splice reporter assay (SMN2-linked luciferase reporter, Example 10); format: cell-based; conditions: SMN2-linked luciferase reporter, average
Use nM as the unit, but write only the number.

Q. What value of EC50 has been recorded for this entry: CC(C)=Cc1ccc2c(c1)C(=O)N(c1ccc(C(C)C(=O)O)cc1)C2 (stereo not drawn) [ALB-115425]
A. 18

Q. Need EC50, item CC(C(=O)OC(C)(C)C)c1ccc(N2Cc3cc(N)ccc3C2=O)cc1 (stereo not drawn) [ALB-111949]
A. 5220

Q. Entry under review: CC(C(=O)O)c1ccc(N2Cc3cc4ccsc4cc3C2=O)cc1 (stereo not drawn) [ALB-112228] . Reported EC50?
A. 669

Q. Given the entry CCOc1cccc2c1C(=O)N(c1ccc(C(C)C)cc1)C2 [ALB-118278] , report its measured EC50.
A. 1380

Q. Value lookup for EC50; key = Cc1ccc(N2Cc3ccc(OC(F)F)cc3C2=O)cc1 [ALB-119515]
A. 146

###

# EC50 values compiled below
tested on: SMN2-linked luciferase-reporter gene construct; experiment: SMN splice reporter assay (SMN2-linked luciferase reporter, Example 10); assay type: cell-based; conditions: SMN2-linked luciferase reporter, average
Only the number, expressed in nM, is required.

{"compound": "O=C1c2ccccc2CN1c1ccc(C2CCCCC2)cc1", "EC50 / nM": 29}
{"compound": "CC(C(=O)O)c1ccc(N2Cc3ccc(CCC(F)(F)F)cc3C2=O)cc1 (centres unmarked)", "EC50 / nM": 356}
{"compound": "CCCNC(=O)Nc1ccc2c(c1)C(=O)N(c1ccc(C(C)C)cc1)C2", "EC50 / nM": 13200}
{"compound": "COc1ccc2c(c1)C(=O)N(c1ccc(C(C)C(O)OC)cc1)C2 (centres unmarked)", "EC50 / nM": 76}

# context switch: different compound, same EC50
Q. Request body: readout EC50, system SMN2-linked luciferase-reporter gene construct, query CC(C(=O)O)c1ccc(N2Cc3cc4c(cc3C2=O)OCO4)cc1 (centres unmarked) . Return the value.
A. 81

###

Form field: maximal fold induction (one value per entry).
test system: SMN2-linked luciferase-reporter gene construct; assay: SMN splice reporter assay (SMN2-linked luciferase reporter, Example 10); format: cell-based; details: SMN2-linked luciferase reporter; average maximum fold increase; read-out: SMN Splice Reporter Assay (Example 10) Avg MaxFold Increase
Respond numerically, and do not add a unit to the figure.

Solved entries:
{"compound": "CC(C)c1ccc(N2Cc3ccc(O)cc3C2=O)cc1", "propertyMeasured": "maximal fold induction", "experimentalResult": 1.64}
{"compound": "CC(C)c1ccc(N2Cc3ccc(OC(F)F)cc3C2=O)cc1", "propertyMeasured": "maximal fold induction", "experimentalResult": 1.57}
{"compound": "CC(C(=O)OC(C)(C)C)c1ccc(N2Cc3ccc(NS(=O)(=O)c4ccccc4)cc3C2=O)cc1 (stereo not drawn)", "propertyMeasured": "maximal fold induction", "experimentalResult": 1.07}

Q. For the compound shown here, "CC(C)c1ccc(N2Cc3cccc(OC(F)F)c3C2=O)cc1" , give the reported maximal fold induction.
A. 1.55

Q. Given the compound "Cc1ccc2c(c1)C(=O)N(c1ccc(C3CC3)cc1)C2" , what is its reported maximal fold induction?
A. 1.37

Q. Which maximal fold induction reading was recorded for the compound "CCN(C)C(=O)N(C)c1ccc2c(c1)C(=O)N(c1ccc(C(C)C)cc1)C2" ?
A. 1.08

Q. Consider the compound "CC(C)c1ccc(N2Cc3cc4c(cc3C2=O)OCO4)cc1" and give its measured maximal fold induction.
A. 1.52

Q. What maximal fold induction value was documented for this compound, "CCN(C)C(=O)Nc1ccc2c(c1)C(=O)N(c1ccc(C(C)C)cc1)C2" ?
A. 1.15

Q. Looking for the measured maximal fold induction of CC(C(=O)OC(C)(C)C)c1ccc(N2Cc3ccc(OC(F)F)cc3C2=O)cc1 (stereo not drawn) , can you help?
A. 1.21

###

tested on: SMN2-linked luciferase-reporter gene construct; assay: SMN splice reporter assay (SMN2-linked luciferase reporter, Example 10); assay type: cell-based; details: SMN2-linked luciferase reporter, average
For each record, check the reported EC50: if it is below 0.3 µM write fulfilled, else write not fulfilled.

Completed entries (count: 2):
{"compound": "CCOc1ccc2c(c1)C(=O)N(c1ccc(C(C)C(=O)O)cc1)C2 (centres unmarked) [ALB-113102]", "categoryLabel": "fulfilled"}
{"compound": "CC(C#N)c1ccc(N2Cc3ccccc3C2=O)cc1 (centres unmarked) [ALB-112330]", "categoryLabel": "fulfilled"}

Proceed to the following item.
Q. Is the reported EC50 for CCNC(=O)Nc1ccc2c(c1)C(=O)N(c1ccc(C(C)C)cc1)C2 [ALB-118414] strictly below 0.3 µM?
A. not fulfilled

###

assay: Plasma and brain pharmacokinetics in mice; type: in vivo, FVB or CD-1 mice; conditions: mouse, plasma, 25 mg/kg, oral, single dose
propertyMeasured: AUC (ng·h/mL)
Entry rule: numbers only, all in ng·h/mL.

Q. Would you mind telling me what AUC value was observed for "COc1ccc2c(c1)C(=O)N(c1ccc(C(C)(C)C)cc1)C2" ?
A. 397

###

test system: SMN2-linked luciferase-reporter gene construct; assay: SMN splice reporter assay (SMN2-linked luciferase reporter, Example 10); format: cell-based; settings: SMN2-linked luciferase reporter, average
propertyMeasured: pEC50
In simple prose, pEC50 is minus the logarithm base ten of a concentration in moles per litre.

{"compound": "CC(C(=O)OC(C)(C)C)c1ccc(N2Cc3ccccc3C2=O)cc1C#N (stereo not drawn)", "pEC50": 5.22}
{"compound": "CC(C(=O)O)c1ccc(N2Cc3cccc(OC4CCCC4)c3C2=O)cc1 (stereo not drawn)", "pEC50": 5.29}
{"compound": "CC(C(=O)O)c1ccc(N2Cc3cccc(-c4cccnc4)c3C2=O)cc1 (stereo not drawn)", "pEC50": 4.69}

Switching to the query record.
Q. What pEC50 value was documented for this compound, "COc1cc2c(cc1F)CN(c1ccc(C(C)C)cc1)C2=O" ?
A. 6.92

###

system: SMN2-linked luciferase-reporter gene construct; test: SMN splice reporter assay (SMN2-linked luciferase reporter, Example 10); format: cell-based; conditions: SMN2-linked luciferase reporter, average
Measured pEC50, listed per entry.
Units for pEC50: none; it is -log10 of a concentration expressed in mol/L.

Solved cases below.
{"compound": "CCCC(C)c1ccc(N2Cc3ccccc3C2=O)cc1 (stereo not drawn) [ALB-117045]", "propertyMeasured": "pEC50", "experimentalResult": 7.15}
{"compound": "CC(C)c1ccc(N2Cc3cccc(Br)c3C2=O)cc1 [ALB-115801]", "propertyMeasured": "pEC50", "experimentalResult": 6.84}

# ---- query compound ----
Q. Lab request: please report pEC50 under test system SMN2-linked luciferase-reporter gene construct for C=Cc1ccc2c(c1)CN(c1ccc(C(C)C(=O)OC(C)(C)C)cc1)C2=O (stereo not drawn) [ALB-113100]
A. 7.00

###

Attribute: EC50
system: SMN2-linked luciferase-reporter gene construct; experiment: SMN splice reporter assay (SMN2-linked luciferase reporter, Example 10); type: cell-based; conditions: SMN2-linked luciferase reporter, average

A selection of reference data follows.
{"compound": "CC(C)c1ccc(N2Cc3cccc(N)c3C2=O)cc1 [ALB-117574]", "EC50": "163 nM"}
{"compound": "CC(C(=O)O)c1ccc(N2Cc3ccc(OCC(F)(F)F)cc3C2=O)cc1 (stereo not drawn) [ALB-113966]", "EC50": "663 nM"}
{"compound": "CC(C(=O)O)c1ccc(N2Cc3ccc(N)cc3C2=O)cc1 (stereo not drawn) [ALB-111883a]", "EC50": "1260 nM"}
{"compound": "CCc1ccc2c(c1)C(=O)N(c1ccc(C(C)C)cc1)C2 [ALB-115713]", "EC50": "61 nM"}
{"compound": "CC(C(=O)OC(C)(C)C)c1ccc(N2Cc3ccc(OC(F)F)cc3C2=O)cc1 (stereo not drawn) [ALB-119336]", "EC50": "718 nM"}

# input for lookup
Q. Fill in: EC50 of CC(C)(C)c1ccc(N2Cc3ccccc3C2=O)cc1 [ALB-114936] is ___
A. 131 nM
